Listed here are compounds together with their documented IC50.
- Test system: KRas G12D-mediated phosphorylation of ERK
- Test Name: Inhibition of KRas G12D-mediated phosphorylation of ERK in AGS cells
- Type: cell-based
- Experimental Parameters: Homo sapiens; AGS cells expressing G12D, 3 hours, phospho-ERK normalized to GAPDH
API: value field is a number in µM; no unit string.

// solved cases for IC50 follow
1. Oc1cc(-c2ncc3c(N4CC5CCC(C4)N5)nc(OCC45CCCN4C[C@H](F)C5)nc3c2F)c2c(Cl)cccc2c1 (mixture of isomers) [Example 330] = 0.0118
2. CCN1CCC[C@H]1COc1nc(N2C[C@H]3CC[C@@H](C2)N3)c2cnc(-c3cc(O)cc4ccccc34)c(F)c2n1 [Example 11] = 1.08

Below: the item to evaluate.
If you can, please state the reported IC50 value of COC[C@H]1CC[C@@]2(COc3nc(N4CC5CCC(C4)N5)c4cnc(-c5cc(O)cc6ccccc56)c(F)c4n3)CCCN12 (stereo in doubt) [Example 389] . 0.781

Where do the numbers come from? From patent US11453683B1.
